- SYSTEM_UNDER_TEST: T1, Cyno ASGR-1 (cynomolgus monkey, UniProt P07306 1-291 (human entry))
- T1 construct: Expressed on HEK 293 cells or as membrane prep on beads; cDNA from XP_005582755; also called cynomologus monkey ASGR-1
- T1 chain: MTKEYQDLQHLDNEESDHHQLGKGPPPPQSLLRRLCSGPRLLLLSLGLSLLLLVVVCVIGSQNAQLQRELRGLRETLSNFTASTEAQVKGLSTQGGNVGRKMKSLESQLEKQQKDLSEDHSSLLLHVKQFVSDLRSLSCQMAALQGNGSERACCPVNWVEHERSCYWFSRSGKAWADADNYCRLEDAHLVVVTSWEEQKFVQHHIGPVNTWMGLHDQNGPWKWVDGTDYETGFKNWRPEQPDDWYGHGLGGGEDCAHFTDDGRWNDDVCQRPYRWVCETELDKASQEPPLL
- ASSAY_INFO: FACS on transfected HEK 293 cells or membrane preps on beads; Y = signal at least 2x irrelevant IgG

BINDER: 190F8 (antibody, V domains shown, Tested as hybridoma supernatant at normalized concentration) VH: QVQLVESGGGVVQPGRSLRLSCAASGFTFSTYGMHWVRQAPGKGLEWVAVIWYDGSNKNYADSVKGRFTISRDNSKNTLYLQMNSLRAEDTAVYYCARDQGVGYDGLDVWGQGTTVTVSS VL: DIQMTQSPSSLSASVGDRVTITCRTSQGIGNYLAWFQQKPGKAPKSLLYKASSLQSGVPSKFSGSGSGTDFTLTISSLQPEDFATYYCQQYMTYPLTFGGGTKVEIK
binding result: binds
//
BINDER: 191G1 (antibody, V domains shown, Tested as hybridoma supernatant at normalized concentration) VH: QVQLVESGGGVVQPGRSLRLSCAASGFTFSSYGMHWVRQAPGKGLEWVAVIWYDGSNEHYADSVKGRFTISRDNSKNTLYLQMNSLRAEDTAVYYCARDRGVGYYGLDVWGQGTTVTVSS VL: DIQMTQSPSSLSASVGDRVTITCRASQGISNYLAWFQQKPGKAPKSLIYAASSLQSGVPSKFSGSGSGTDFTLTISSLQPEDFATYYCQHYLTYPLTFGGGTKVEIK
binding result: binds
